Molecular target: Antithrombin III (plasma purified human AT-III, Molecular Innovations)
Assay: same assay; ratio to recombinant wild-type FIXa (Catalyst Biosciences WT)
Here the recorded K0.5-mut/K0.5-wt is given for each entry.
Respond using a number only.

protein	K0.5-mut/K0.5-wt
FIXa-R338E/R403E/E410N (protein) chain 1: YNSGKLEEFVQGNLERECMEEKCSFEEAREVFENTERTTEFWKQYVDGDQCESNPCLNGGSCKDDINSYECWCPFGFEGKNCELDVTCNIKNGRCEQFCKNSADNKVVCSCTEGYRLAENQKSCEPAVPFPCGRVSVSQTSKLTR chain 2: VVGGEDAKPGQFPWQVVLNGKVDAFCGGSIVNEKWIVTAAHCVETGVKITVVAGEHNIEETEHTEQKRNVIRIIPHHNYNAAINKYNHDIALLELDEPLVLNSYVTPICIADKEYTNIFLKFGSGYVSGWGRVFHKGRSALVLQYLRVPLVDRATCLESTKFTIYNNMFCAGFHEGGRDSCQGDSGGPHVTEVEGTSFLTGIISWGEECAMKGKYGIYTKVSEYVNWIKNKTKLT	122

Now take the following protein into account.
# get_value(readout='K0.5-mut/K0.5-wt', item= FIXa-D203N/F205T/R338A (protein) chain 1: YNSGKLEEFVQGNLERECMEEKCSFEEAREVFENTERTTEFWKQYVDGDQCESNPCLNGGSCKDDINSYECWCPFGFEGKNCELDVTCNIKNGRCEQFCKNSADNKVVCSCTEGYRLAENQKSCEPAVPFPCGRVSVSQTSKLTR chain 2: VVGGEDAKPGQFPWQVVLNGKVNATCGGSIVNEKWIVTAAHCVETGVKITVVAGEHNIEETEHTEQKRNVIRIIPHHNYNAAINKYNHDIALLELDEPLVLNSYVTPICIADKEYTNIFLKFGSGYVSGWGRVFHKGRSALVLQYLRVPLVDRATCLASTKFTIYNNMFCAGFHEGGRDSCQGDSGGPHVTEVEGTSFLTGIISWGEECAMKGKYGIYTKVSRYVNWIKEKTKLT )
21.9

Sourced from patent US20210238260
